Reference for the values: PubChem BioAssay (NCI)

test system: MALME-3M melanoma; experiment: NCI-60 one-dose screen, 48 h; conditions: 10 µM unless noted
This is part of a sample that, as a whole, favours compounds with a hit. Of some 83,000 tested, about 20% had one in any assay. Active and inactive are the calls of the source. How the source made its calls: active means growth percent below 10; inactive means the rest.
Mark one answer only. Choices: active, inactive

CC(C)(C)c1ccc(OP(=S)(N/N=C/c2ccccc2O)Oc2ccc(C(C)(C)C)cc2)cc1 ... inactive

What classification did O=C1CN(c2ccccc2)C(=O)C1C(=O)Nc1ccc(Cl)c(Cl)c1 (configuration not stated) end up with in this test?
active

What classification did `O=C1/C(=C\C(Cl)=C/c2ccc([N+](=O)[O-])cc2)SC(=S)N1CCc1ccc(O)cc1` end up with in this test?
active

What classification did `Cc1cc(Cl)nc(N(CCCNc2ccnc3cc(Cl)ccc23)Cc2ccco2)n1` end up with in this test?
active

What classification did `CN1CCN(CC#CCn2c3c(c4ccccc42)C[C@]2(C)[C@H]4CC[C@@H]5[C@H]6[C@H]7OC(=O)[C@@]6(CCC7(C)C)CC[C@@]5(C)[C@]4(C)CC[C@H]2C3(C)C)CC1` end up with in this test?
inactive

What classification did `CN1CCN(c2ccc3nc(-c4[nH]ncc4Nc4ncnc5[nH]ccc45)[nH]c3c2)CC1` end up with in this test?
active

What classification did `Brc1ccc(Cn2nnnc2-c2ccn(-c3ccccc3)n2)cc1` end up with in this test?
inactive

What classification did `CNC(=O)c1cc(Oc2ccc3nc(NC(=O)Nc4ccc(Cl)cc4)sc3c2)ccn1` end up with in this test?
inactive

* * *

# reported growth; entries follow
test system: SK-MEL-2 melanoma; assay: NCI-60 one-dose screen, 48 h (100 = growth as untreated, 0 = no growth, -100 = all killed); conditions: 10 µM unless noted
Compounds without any hit were thinned out: in the full panel of roughly 83,000, 20% have a hit.
Kindly provide the numeric value in % only, without the unit symbol.

Cc1cc(C)nc(NC(N)=NCCc2ccccc2)n1 ... 38.4
C=C(C)[C@@H]1CC[C@]2(C=NCCCNCCCCNCCCN)CC[C@]3(C)[C@H](CC[C@@H]4[C@@]5(C)CCCNC(C)(C)[C@@H]5CC[C@]43C)[C@@H]12 ... 132

Report growth for `S=c1[nH]nc2ccccn12` please.
95.3

* * *

tested on: HOP-92 NSCLC; assay: NCI-60 one-dose screen, 48 h (100 = growth as untreated, 0 = no growth, -100 = all killed); conditions: 10 µM unless noted
Compounds without any hit were thinned out: in the full panel of roughly 83,000, 20% have a hit.
Could you mark each record 1.0 if its growth falls strictly under 90%, and 0.0 if it equals or exceeds it?

The following compounds have reported results that may help.
COC(=O)[C@]12CC[C@@H](C)[C@H](C)[C@@H]1C1=CC[C@@H]3[C@@]4(C)C(c5ncon5)=C[C@@](C)(CO)C4=CC[C@@]3(C)[C@]1(C)CC2 ... 1.0
COc1cccc(-c2nn(-c3ccccc3)cc2-c2ccnc(NCCCNS(=O)(=O)c3ccccc3)c2)c1 ... 1.0
O=C(CI)Nc1ccc(O)c2ccccc12 ... 1.0
OCC(CO)(CCl)CCl ... 1.0
COCCNC1=C(Cl)C(=O)c2ccccc2C1=O ... 0.0
CC(C)=CCC[C@](C)(O)[C@H]1CC[C@]2(C)[C@@H]1CC[C@@H]1[C@@]3(C)C/C(=C/c4cccc([N+](=O)[O-])c4)C(=O)C(C)(C)[C@@H]3CC[C@]12C ... 1.0
Cc1csc(Nc2nc(-c3cccc(Br)c3)nc(C(Cl)(Cl)Cl)n2)n1 ... 1.0
C=C(C)[C@@H]1CC[C@]2(C(=O)OC)CC[C@]3(C)[C@H](CC[C@@H]4[C@@](C)(CC/C(N)=N/O)[C@H](C(=C)C)CC[C@]43C)[C@@H]12 ... 0.0

Does this compound meet the criterion growth < 90%? `CC1=CC(=O)N(c2cccc3c(N4C(=O)C=C(C)C4=O)cccc23)C1=O`
1.0

Does this compound meet the criterion growth < 90%? `c1ccc2[nH]c(-c3cc(-c4ccc5c(c4)OCO5)n[nH]3)nc2c1`
0.0

* * *

tested on: RXF 393 renal; experiment: NCI-60 one-dose screen, 48 h (100 = growth as untreated, 0 = no growth, -100 = all killed); details: 10 µM unless noted
This is part of a sample that, as a whole, favours compounds with a hit. Of some 83,000 tested, about 20% had one in any assay.
# reported growth; entries follow
Kindly provide the numeric value in % only, without the unit symbol.

In the examples that follow, each entry is paired with its recorded growth.
Cn1c2c(c3ccc(Cl)cc31)-n1cccc1C2=O ... 91.8
COc1ccc2c(c1)C(Br)=C(CCO)C2c1ccccc1 (stereo unspecified) ... 20
O=C1C=Cc2ncccc2C1=O ... 106
CCCCN1CCCCn2c1nc1c2c(=O)n(C)c(=O)n1C ... 108
O=S(=O)(NCCNc1cc(-c2cn(-c3ccccc3)nc2-c2cccc(O)c2)ccn1)c1ccc(F)cc1 ... 35
COc1ccc(-c2cc(-c3c(C)oc4cc5occc5c(OC)c4c3=O)nc(N)c2C#N)cc1OC ... 61.6

Report growth for `COc1cc2nc(Cl)nc(Nc3cccc(C(=O)/C=C/c4ccc(Cl)cc4)c3)c2cc1OC` please.
62.7

Report growth for `Cc1ccc2c(c1)c(-c1nc(-c3c[nH]c4ncccc34)cs1)cn2C` please.
97.4

Report growth for `CCN1CCN(C(=O)[C@]23CCC(C)(C)C[C@@H]2C2=CC[C@@H]4[C@@]5(C)C/C(=C/c6ccncc6)C(=O)C(C)(C)[C@@H]5CC[C@@]4(C)[C@]2(C)CC3)CC1` please.
-93.3

Report growth for `O=C(O)c1cccc2c1C(=O)N(c1ccc3c(c1)Cc1ccccc1-3)C2=O` please.
110

Report growth for CC1(C)NC2=C(C(Nc3cccnc3)N1)C(c1ccc([N+](=O)[O-])cc1)C(C(=O)c1ccc(N=[N+]=[N-])cc1)O2 (stereo unspecified) please.
112

* * *

# reported growth; entries follow
Tested on: HOP-92 NSCLC
Assay: NCI-60 one-dose screen, 48 h (100 = growth as untreated, 0 = no growth, -100 = all killed)
Conditions: 10 µM unless noted
Procedure: Growth inhibition of the HOP-92 human Non-Small Cell Lung tumor cell line is measured as a screen for anti-cancer activity. Cells are grown in 96 well plates and exposed to the test compound for 48 hours. Compounds are tested at a single concentration, which is 10^-5 M for most compounds. The reported endpoint is percent growth (GI% or GIPRCNT), where numbers from 0 - 100% represent growth inhibition, and numbers from -100% - 0 represent cell death. […]
About 83,000 compounds went through this panel and 20% of them were active in at least one assay; those are over-represented in the sample as a whole. Activity calls are given as the source filed them. Rule for the calls: active = growth percent below 10; inactive = the rest.

In the examples that follow, each entry is paired with its recorded growth.
Cc1cc(N(CCCNc2ccnc3cc(Cl)ccc23)Cc2ccco2)nc(N2CCN(C)CC2)n1 ... 79.9% (inactive)
Cc1c(C)c2c(c(C)c1NC(=O)CCCCCCC(=O)O)CCC(C)(CCCC(C)CCCC(C)CCCC(C)C)O2 (centres undefined) ... 82% (inactive)
C[C@H]1[C@H]2C3=CC[C@@H]4[C@@]5(C)C/C(=C/c6ccco6)C(=O)C(C)(C)[C@@H]5CC[C@@]4(C)[C@]3(C)CC[C@@]2(C(=O)N2CCOCC2)CC[C@@H]1C ... 78.4% (inactive)
COC(=O)CCCCCn1c2ccccc2c2c3c(c4c5ccccc5[nH]c4c21)C(=O)N(O)C3=O ... 79.4% (inactive)
C=C1C(=O)O[C@H]2[C@H]1CC/C(COC(=O)NCc1cc3ccccc3[nH]1)=C\CC[C@@]1(C)O[C@@H]21 ... -14.3% (active)

Report growth for CC(=O)N1N=C(c2ccc(C)cc2)CC1c1ccc(Oc2ccc(Br)cc2)cc1 (centres undefined) please.
89.4% (inactive)

Report growth for `CN(C)c1ccc(-c2ccc(-c3ccc(C(=N)N)c(F)c3)s2)cc1` please.
-79.4% (active)

Report growth for `COc1ccc(OC)c(-c2c(C#N)c(-c3ccco3)nc3c2c(-c2ccccc2)nn3-c2ccccc2)c1` please.
78.5% (inactive)

Report growth for `C/C(=N\Nc1cc(C)c2ccccc2n1)c1ccccn1` please.
-13.9% (active)

* * *

# reported growth; entries follow
test system: SK-MEL-5 melanoma; assay: NCI-60 one-dose screen, 48 h (100 = growth as untreated, 0 = no growth, -100 = all killed); details: 10 µM unless noted
Compounds without any hit were thinned out: in the full panel of roughly 83,000, 20% have a hit.
Kindly provide the numeric value in % only, without the unit symbol.

In the examples that follow, each entry is paired with its recorded growth.
O=S(=O)(NCCNc1cc(-c2cn(-c3ccccc3)nc2-c2cccc(O)c2)ccn1)c1ccc(C(F)(F)F)cc1 ... 36.9
COc1ccccc1-n1cnc(N)c1C(=O)c1cc(OC)c(OC)c(OC)c1 ... 28.5

Request - read-out growth | tested on SK-MEL-5 melanoma | compound `O=C(/C=C/c1cccc(O)c1)c1ccccc1O`
92.3

Request - read-out growth | tested on SK-MEL-5 melanoma | compound `O=S(=O)(NCCNc1cc(-c2cn(-c3ccccc3)nc2-c2cccc(O)c2)ccn1)c1ccc(Br)cc1`
11.5
